Compiled Ki measurements on Coagulation factor XI (Homo sapiens, UniProt P03951) taken from the literature.

Sample records with Ki:
smiles_input: COCCOC(=O)Nc1ccc2c(c1)NC(=O)[C@H](C)CCC[C@H](NC(=O)c1ncn(-c3cccc(Cl)c3F)c1C)c1cc-2ccn1
Ki: < 5 nM
--
smiles_input: COC(=O)Nc1ccc2c(c1)NC(=O)[C@H](C)CCC[C@H](NC(=O)N1CCC[C@@]3(C1)OC(=O)Nc1ccc(Cl)cc13)c1cc-2ccn1
Ki: > 5000 nM

Below: the item to evaluate.
Task item: Please respond with reported Ki (system Coagulation factor XI (Homo sapiens, UniProt P03951)) for COC(=O)Nc1ccc2c(c1)NC(=O)CC/C=C/C[C@H](NC(=O)[C@H]1CC[C@H](CN)CC1)c1cc-2ccn1 .
Reply: < 5 nM

###

Compiled Ki measurements on UniProt:P03951 taken from the literature.
Record the value in nM, omitting the unit from your answer.

Sample records with Ki:
compound: C[C@@H]1CCC[C@H](N2CCC(c3cc(Cl)ccc3-n3cc(Cl)nn3)=CC2=O)c2cccc(n2)-c2c(cnn2C)NC1=O
unit_spec: nM
readout_number: 4.1

compound: N=C(N)NCCC[C@H](NC(=O)[C@@H](CO)NS(=O)(=O)Cc1ccccc1)C(=O)NCc1ccc(C(=N)N)cc1
unit_spec: nM
readout_number: 770

compound: CNC(=O)N1CCC(CC[C@@H](NS(=O)(=O)Cc2ccccc2)C(=O)N[C@@H](CCC2CCNCC2)C(=O)NCc2ccc(C(=N)N)cc2)CC1
unit_spec: nM
readout_number: 1300

Task item: Give Ki for O=C1CCCCC(c2ccc(-c3cc(F)ccc3-n3cc(Cl)nn3)c[n+]2[O-])c2cccc(c2)-c2cc(F)ccc2N1 (single isomer, unassigned)
Reply: 3.2

###

Compiled pKi measurements on Coagulation factor XI (Homo sapiens) taken from the literature.
Friendly reminder that pKi comes from taking -log10 of the concentration in mol/L.

Sample records with pKi:
smiles_input: CC(C)(C)OC[C@@H](NS(=O)(=O)Cc1ccccc1)C(=O)N1CCC[C@H]1C(=O)NCc1ccc(C(=N)N)cc1
readout_number: 7.44
--
smiles_input: O=C1NCc2cc(F)c(NC(=O)[C@H](Cc3ccccc3)n3cnc(-c4cc(Cl)ccc4-n4cc(Cl)nn4)cc3=O)cc21
readout_number: 7.01
--
smiles_input: O=C1NCC/C=C/C[C@H](n2cnc(-c3cc(Cl)ccc3-n3cc(Cl)nn3)cc2=O)c2cc(ccn2)[C@H]2C[C@@H]12
readout_number: 6.45

Below: the item to evaluate.
Task item: Give pKi for N=C(N)c1ccc(CNC(=O)[C@H](CCCCN)NC(=O)[C@@H](CC2CCCCC2)NS(=O)(=O)Cc2ccccc2)cc1
Reply: 6.82

###

Compiled pKi measurements on Coagulation factor XI (Homo sapiens) taken from the literature.
Friendly reminder that pKi comes from taking -log10 of the concentration in mol/L.

Task item: Please respond with reported pKi (system Coagulation factor XI (Homo sapiens)) for COC(=O)Nc1ccc2c(c1)NC(=O)CCc1nc(ccc1F)CC(NC(=O)c1c(F)cc(C)cc1F)c1nc-2c[nH]1 (stereo not shown) .
Reply: 6.84

Task item: Please respond with reported pKi (system Coagulation factor XI (Homo sapiens)) for C[C@H]1CCC[C@H](c2ccc(-c3ccccc3-n3cc(Cl)nn3)c[n+]2[O-])c2cccc(c2)-c2c(cnn2C(F)F)NC1=O (single isomer, unassigned) .
Reply: 7.92

Task item: Please respond with reported pKi (system Coagulation factor XI (Homo sapiens)) for COC(=O)Nc1ccc(-c2cc([C@H](CCSC)NC(=O)/C=C/c3cc(Cl)ccc3-n3cnnn3)nnc2Cl)cc1 .
Reply: 7.17

Task item: Please respond with reported pKi (system Coagulation factor XI (Homo sapiens)) for C[C@@H]1CCC[C@H](n2cnc(-c3cc(Cl)ccc3-n3cc(Cl)nn3)cc2=O)C(=O)NCc2ccccc2NC1=O .
Reply: 8.07

Task item: Please respond with reported pKi (system Coagulation factor XI (Homo sapiens)) for O=C1CCCC[C@@H](c2ccc(-c3cc(Cl)ccc3-n3cnnn3)c[n+]2[O-])c2cccc(c2)-c2cc(F)ccc2N1 .
Reply: 7.08

Task item: Please respond with reported pKi (system Coagulation factor XI (Homo sapiens)) for COC(=O)Nc1cccc(C(=O)NC(Cc2ccccc2)c2ccc(-c3cc(Cl)ccc3-n3cnnn3)c[n+]2[O-])c1 (stereo not shown) .
Reply: 6.84

Task item: Please respond with reported pKi (system Coagulation factor XI (Homo sapiens)) for O=C(Nc1n[nH]c2ccccc12)[C@H](Cc1ccccc1)n1cnc(-c2cc(Cl)ccc2-n2cc(Cl)nn2)cc1=O .
Reply: 7.17
